B1: PLAGL1 (parent)
chain: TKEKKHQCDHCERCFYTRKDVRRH

Variants of: B1
Experiment: protein stability index of a GFP-peptide fusion (GPS, HEK-293T) (PSI 1-6); higher = more stable;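 also: lentivirally expressed fusions sorted by FACS into six bins by GFP to DsRed ratio, PSI derived from sequencing read proportions per bin multiplied by bin number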
Conditions: c terminus: a fixed tail appended
This listing pairs variants with measured protein stability index.

A selection of reference data follows.
| seq | protein stability index |
| --- | --- |
| TKEKKLQCDHCERCFYTRKDVRRH [H6L] | 2.5 |
| TKEKKHQCDHCERCFVTRKDVRRH [Y16V] | 3.75 |
| TKEKKHQCDHCERCFATRKDVRRH [Y16A] | 4.02 |
| TKEKKHQCDHCERCFYTRKDVRRR [H24R] | 3.37 |
| TKEKKHQCHHCERCFYTRKDVRRH [D9H] | 3.02 |

protein stability index for TKEKKHQCDHCERCFYTRKEVRRH [D20E] ? 3.96
